Origin of values: ChEMBL document CHEMBL1961873

system: Mitogen-activated protein kinase 3 (Homo sapiens);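 further: values are mean percent inhibition of MAPK3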
assay conditions: at 1 µM
compounds and their reported inhibition
measurement label: inhibition (%)

# smiles notation, system, result units, readout number
records = [
    ("C#Cc1cccc(Nc2ncnc3ccc(OCCCCNCCS(C)(=O)=O)cc23)c1", "Mitogen-activated protein kinase 3 (Homo sapiens)", "%", 5.78),
    ("CNC(=O)c1cncc(/C=C/c2c(C)cccc2C)c1", "Mitogen-activated protein kinase 3 (Homo sapiens)", "%", 3.65),
    ("O=C1Nc2ccccc2/C1=C/Nc1ccc(-n2cncn2)cc1", "Mitogen-activated protein kinase 3 (Homo sapiens)", "%", 6.36),
    ("COc1cccc(-n2cnc3c(N/N=C/c4ccncc4)ncnc32)c1", "Mitogen-activated protein kinase 3 (Homo sapiens)", "%", 2.27),
    ("COc1cc(Nc2ncc3c(C)nc(-c4cccc(Oc5ccccc5)c4)n3n2)cc(OC)c1OC", "Mitogen-activated protein kinase 3 (Homo sapiens)", "%", 5.07),
    ("O=C(Nc1n[nH]c2cc(-c3cc(F)ccc3F)ccc12)C1CC1", "Mitogen-activated protein kinase 3 (Homo sapiens)", "%", 0.63),
]

---

molecules and their reported inhibition
system: Tyrosine-protein kinase Fgr (Homo sapiens);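 further: reported values are mean percent inhibition of FGR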
assay conditions: at 0.1 µM

# smiles notation, inhibition (%)
data = [
    ("COc1cc(Nc2ncc3c(C)nc(-c4cccc(Oc5ccccc5)c4)n3n2)cc(OC)c1OC", 0.02),
    ("c1ccc(Oc2ccc(Nc3ncc(-c4ccccc4)o3)cc2)cc1", 1.2),
    ("COc1cc(C)c(N(C)C(=O)CN(C)C)cc1Nc1nc(Nc2cccc(F)c2C(N)=O)c2cc[nH]c2n1", 0.53),
    ("CNC(=O)c1cncc(/C=C/c2c(C)cccc2C)c1", 6.6),
    ("CCS(=O)(=O)c1ccc(OC)c(Nc2ncc(-c3ccccc3Cl)o2)c1", 3.37),
    ("Cc1ccc(C(=O)NC(C)C)cc1-c1ccc(C(=O)NCC2CC2)cc1", -1.7),
    ("O=C(Nc1n[nH]c2nc(-c3ccco3)ccc12)C1CC1", 0.22),
    ("CCS(=O)(=O)c1ccc(OC)c(Nc2ncc(-c3cccc(-c4ccccc4F)c3)o2)c1", 11.9),
    ("Clc1ccc(CNc2nccc(-c3cnn4ncccc34)n2)cc1", 3.59),
    ("CS(=O)(=O)CCNCc1ccc(-c2ccc3ncnc(Nc4ccc(OCc5ccccc5)c(Br)c4)c3c2)o1", 4.84),
    ("FC(F)(F)c1cccc(Nc2nccc(-c3cnn4nc(-c5ccccc5)ccc34)n2)c1", 2.98),
    ("CN1CCN(CCCNc2nc3ccc(Oc4ccc(NC(=O)Nc5cc(C(F)(F)F)ccc5F)cc4)cc3[nH]2)CC1", 1.31),
    ("Fc1ccc(-c2ncn(CCCN3CCOCC3)c2-c2ccncc2)cc1", -2.23),
    ("CCN(CC)Cc1ccc(Nc2nccc(-c3cnn4ncccc34)n2)cc1", 2.7),
    ("N#Cc1ccc(Oc2nccc(-c3c(-c4ccc(F)cc4)ncn3C3CCNCC3)n2)cc1", 3.69),
    ("Fc1ccc(-c2ncn(C3CCNCC3)c2-c2ccnc(Oc3ccc(Oc4ccccc4)cc3)n2)cc1", -0.13),
    ("NC(=O)Cc1ccccc1Oc1nccc(-c2c(-c3ccc(F)cc3)ncn2C2CCNCC2)n1", 0.84),
    ("CCc1cccc(CC)c1/C=C/c1cncc(C(=O)NC)c1", 3.25),
    ("c1ccc(-c2n[nH]cc2-c2ccnc(-c3ccc(OCCN4CCOCC4)cc3)c2)nc1", 4.14),
    ("COC(=O)Nc1nc2ccc(Sc3ccc(NC(=O)Nc4cc(C(F)(F)F)ccc4F)cc3)cc2[nH]1", 1.66),
]

---

compounds and their reported inhibition
system: Serine/threonine-protein kinase DCLK2 (Homo sapiens) (UniProt Q8N568);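 further: each value is a mean percent inhibition of DCLK2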
Sequence (whole entry): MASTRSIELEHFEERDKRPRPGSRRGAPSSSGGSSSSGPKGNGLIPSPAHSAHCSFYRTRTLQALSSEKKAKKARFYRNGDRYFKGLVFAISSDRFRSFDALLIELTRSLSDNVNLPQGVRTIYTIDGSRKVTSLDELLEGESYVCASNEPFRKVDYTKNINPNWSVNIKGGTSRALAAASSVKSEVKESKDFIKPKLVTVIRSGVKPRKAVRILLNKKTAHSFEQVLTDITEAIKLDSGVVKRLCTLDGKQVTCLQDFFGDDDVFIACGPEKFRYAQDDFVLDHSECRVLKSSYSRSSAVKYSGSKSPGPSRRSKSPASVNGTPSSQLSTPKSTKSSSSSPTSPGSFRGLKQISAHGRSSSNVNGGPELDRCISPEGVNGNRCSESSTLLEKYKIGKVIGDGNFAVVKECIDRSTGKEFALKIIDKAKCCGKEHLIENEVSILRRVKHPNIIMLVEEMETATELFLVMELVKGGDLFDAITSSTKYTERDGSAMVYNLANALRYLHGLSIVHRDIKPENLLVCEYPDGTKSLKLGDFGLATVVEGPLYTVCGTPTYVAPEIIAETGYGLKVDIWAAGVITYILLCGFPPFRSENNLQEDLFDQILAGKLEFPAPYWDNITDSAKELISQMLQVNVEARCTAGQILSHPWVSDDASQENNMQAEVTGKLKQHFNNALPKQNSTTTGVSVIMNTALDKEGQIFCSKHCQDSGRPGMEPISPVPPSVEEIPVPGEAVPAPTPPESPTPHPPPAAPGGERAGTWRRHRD
assay conditions: at 1 µM

# smiles notation, system, result units, inhibition
records = [
    ("CN1CCN(CCCNc2nc3ccc(Oc4ccc(NC(=O)Nc5cc(C(F)(F)F)ccc5F)cc4)cc3[nH]2)CC1", "Serine/threonine-protein kinase DCLK2 (Homo sapiens) (UniProt Q8N568)", "%", -0.8),
    ("NC(=O)c1cc(-c2ccc(F)cc2)cc(-c2ccncc2)c1N", "Serine/threonine-protein kinase DCLK2 (Homo sapiens) (UniProt Q8N568)", "%", -0.85),
    ("c1ccc(-c2n[nH]cc2-c2ccnc(-c3ccc(OCCN4CCOCC4)cc3)c2)nc1", "Serine/threonine-protein kinase DCLK2 (Homo sapiens) (UniProt Q8N568)", "%", 4.29),
    ("CN(C)CCCNc1nccc(-c2c(-c3ccc(F)cc3)nn3cc(C(F)(F)F)ccc23)n1", "Serine/threonine-protein kinase DCLK2 (Homo sapiens) (UniProt Q8N568)", "%", -1.62),
    ("O=C1Nc2ccc(I)cc2C1=Cc1cc(Br)c(O)c(Br)c1", "Serine/threonine-protein kinase DCLK2 (Homo sapiens) (UniProt Q8N568)", "%", 1.91),
    ("O=C1NC(=O)C(c2cccc(Cl)c2)=C1Nc1ccc(Cl)c(C(=O)O)c1", "Serine/threonine-protein kinase DCLK2 (Homo sapiens) (UniProt Q8N568)", "%", -4.18),
    ("CCC(=O)Nc1ccc(C)c(-c2ccc(C(=O)NCC3CC3)cc2)c1", "Serine/threonine-protein kinase DCLK2 (Homo sapiens) (UniProt Q8N568)", "%", 0.48),
    ("CCS(=O)(=O)c1ccc(OC)c(Nc2ncc(-c3ccccc3Cl)o2)c1", "Serine/threonine-protein kinase DCLK2 (Homo sapiens) (UniProt Q8N568)", "%", 5.11),
    ("C#Cc1cccc(Nc2ncnc3ccc(OCCCCNCCS(C)(=O)=O)cc23)c1", "Serine/threonine-protein kinase DCLK2 (Homo sapiens) (UniProt Q8N568)", "%", -4.44),
    ("CS(=O)(=O)CCNCc1ccc(-c2ccc3ncnc(Nc4ccc(OCc5ccccc5)c(Br)c4)c3c2)o1", "Serine/threonine-protein kinase DCLK2 (Homo sapiens) (UniProt Q8N568)", "%", -1.71),
    ("COc1cc(C)c(N(C)C(=O)CN(C)C)cc1Nc1nc(Nc2cccc(F)c2C(N)=O)c2cc[nH]c2n1", "Serine/threonine-protein kinase DCLK2 (Homo sapiens) (UniProt Q8N568)", "%", -3.85),
    ("O=C(NCC1CC1)c1ccc(-c2cccc(C(=O)NC3CC3)c2)cc1", "Serine/threonine-protein kinase DCLK2 (Homo sapiens) (UniProt Q8N568)", "%", -0.41),
    ("NC(=O)Cc1ccccc1Oc1nccc(-c2c(-c3ccc(F)cc3)ncn2C2CCNCC2)n1", "Serine/threonine-protein kinase DCLK2 (Homo sapiens) (UniProt Q8N568)", "%", 0.45),
    ("Cc1ccc(NC(=O)c2ccoc2)cc1-c1ccc(C(=O)NCC2CC2)cc1", "Serine/threonine-protein kinase DCLK2 (Homo sapiens) (UniProt Q8N568)", "%", -0.45),
    ("O=C1Nc2ccccc2/C1=C/Nc1ccc(-n2cncn2)cc1", "Serine/threonine-protein kinase DCLK2 (Homo sapiens) (UniProt Q8N568)", "%", -2.02),
    ("Fc1ccc(-c2nc3n(c2-c2ccncc2)CCS3)cc1", "Serine/threonine-protein kinase DCLK2 (Homo sapiens) (UniProt Q8N568)", "%", -3.53),
    ("COc1cc(Nc2ncc3c(C)nc(-c4cccc(C(F)(F)F)c4)n3n2)cc(OC)c1OC", "Serine/threonine-protein kinase DCLK2 (Homo sapiens) (UniProt Q8N568)", "%", -1.04),
    ("COc1cc2ncn(-c3cc(OCCc4ccccc4)c(C(N)=O)s3)c2cc1OC", "Serine/threonine-protein kinase DCLK2 (Homo sapiens) (UniProt Q8N568)", "%", 0.05),
]
